Target: Receptor-type tyrosine-protein phosphatase C (Homo sapiens, UniProt P08575)
Sequence (P08575 whole entry): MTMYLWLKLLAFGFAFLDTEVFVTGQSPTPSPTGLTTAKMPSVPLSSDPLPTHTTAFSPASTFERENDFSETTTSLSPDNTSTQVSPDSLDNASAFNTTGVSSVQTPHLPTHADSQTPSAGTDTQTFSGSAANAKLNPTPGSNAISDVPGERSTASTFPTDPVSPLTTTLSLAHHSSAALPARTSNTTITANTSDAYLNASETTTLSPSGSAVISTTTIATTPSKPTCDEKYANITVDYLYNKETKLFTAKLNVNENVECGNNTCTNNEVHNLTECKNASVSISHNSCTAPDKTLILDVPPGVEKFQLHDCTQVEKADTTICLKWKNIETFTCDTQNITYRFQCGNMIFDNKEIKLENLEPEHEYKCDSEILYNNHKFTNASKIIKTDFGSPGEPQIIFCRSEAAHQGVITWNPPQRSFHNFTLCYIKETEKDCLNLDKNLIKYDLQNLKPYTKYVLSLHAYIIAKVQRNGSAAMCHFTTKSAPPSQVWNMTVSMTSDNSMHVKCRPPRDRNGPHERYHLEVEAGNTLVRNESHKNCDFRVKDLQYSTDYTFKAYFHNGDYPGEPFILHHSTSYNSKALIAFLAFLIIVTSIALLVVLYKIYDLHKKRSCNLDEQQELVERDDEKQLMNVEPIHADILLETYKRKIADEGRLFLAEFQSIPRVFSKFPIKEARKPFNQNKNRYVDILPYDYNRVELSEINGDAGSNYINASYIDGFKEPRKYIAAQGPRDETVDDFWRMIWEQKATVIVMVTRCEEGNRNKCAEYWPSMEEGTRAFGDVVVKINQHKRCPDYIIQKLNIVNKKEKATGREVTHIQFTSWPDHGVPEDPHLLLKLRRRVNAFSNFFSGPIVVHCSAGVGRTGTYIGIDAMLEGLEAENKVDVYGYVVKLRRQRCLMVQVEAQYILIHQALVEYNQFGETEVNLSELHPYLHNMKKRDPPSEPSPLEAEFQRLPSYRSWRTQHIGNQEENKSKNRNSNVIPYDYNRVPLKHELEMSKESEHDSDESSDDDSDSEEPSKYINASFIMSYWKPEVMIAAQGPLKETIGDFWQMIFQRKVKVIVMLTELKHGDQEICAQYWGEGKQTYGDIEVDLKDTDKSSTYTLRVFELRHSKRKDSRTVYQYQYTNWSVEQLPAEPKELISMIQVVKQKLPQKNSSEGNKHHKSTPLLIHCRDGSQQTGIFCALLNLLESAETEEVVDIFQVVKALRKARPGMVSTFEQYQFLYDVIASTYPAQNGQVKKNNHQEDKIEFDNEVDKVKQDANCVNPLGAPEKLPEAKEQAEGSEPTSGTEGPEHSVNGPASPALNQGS
Field: Ki. Provide a value for each of the compounds that follow.

# input compound: CCC(CN(C(=O)C(=O)O)c1ccc(C[C@H](NC(=O)OC(C)(C)C)C(=O)NCCCCOc2cccc(O)c2C(=O)OC)cc1)C(=O)O (stereo partly drawn) ; wanted: its Ki
> 30 µM

# input compound: COC(=O)c1c(O)cccc1OCCCCNC(=O)C(Cc1ccc(OC(C(=O)O)C(=O)O)cc1)NC(=O)OC(C)(C)C (stereo not drawn) ; wanted: its Ki
> 30 µM

# input compound: COC(=O)c1c(O)cccc1OCCCCNC(=O)[C@H](Cc1ccc(OC(C)C(=O)O)c(C(=O)O)c1)NC(=O)[C@H](Cc1ccccc1)NC(=O)OC(C)(C)C (stereo partly drawn) ; wanted: its Ki
> 30 µM

Each recorded value in this set is attributed to ChEMBL document CHEMBL1145874.
